# key: entry, value: activation
Assay: counter-screen for M1 agonists: effect in parental CHO-K1 cells (AID 602248);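 note: untransfected CHO-K1 host cells lacking M1 receptor as counterscreen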
Settings: Fluo-8 calcium fluorescence, at 3 µM, stronger effect = higher value, scaled to maximal ATP response, vehicle zero
The whole screen tested about 360,000 compounds, of which about 1,700 (0.47%) were called active. This excerpt belongs to a sample that is enriched for actives.
Express your answer in %, writing the number without its unit.

- compound: "CC(C)(C)C1CCC(=O)N2CCC[C@]2(c2ccccc2)C1 (stereo partly drawn)"
  activation, %: -0.26
- compound: "Cc1ccc(Oc2cc(NC(=O)CCCn3nc(C)c([N+](=O)[O-])c3C)cc([N+](=O)[O-])c2)cc1"
  activation, %: 0.22

Alright, here's another compound for you.
# activation of c1ccc2c(c1)nnn2-c1ccncc1 = 0.33

###

Experiment: counter-screen for M1 agonists: effect in parental CHO-K1 cells (AID 602248);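 note: untransfected CHO-K1 host cells lacking M1 receptor as counterscreen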
Conditions: Fluo-8 calcium fluorescence, at 3 µM, scaled to maximal ATP response, vehicle zero
The whole screen tested about 360,000 compounds, of which about 1,700 (0.47%) were called active. Cut-off read from the data, not from the text of the source: active = activation above about 15%; inactive = the rest. The list comes from a sample in which actives are over-represented; it also holds close analogues and randomly drawn compounds.
Respond only with the outcome that fits, drawn from active, inactive

Here's what some known entries look like.
- smilesEntry: "O=C(O)c1cc(Cl)c(Cl)cc1C(=O)Nc1cccc2ncccc12"
  classLabel: "active"
- smilesEntry: "CCCCNC(=O)c1nc(C2CCN(S(=O)(=O)c3ccc(F)c(F)c3)CC2)oc1-c1cccc(C(F)(F)F)c1"
  classLabel: "inactive"
- smilesEntry: "OCC1(Cc2ccccc2C(F)(F)F)CCN(Cc2ccncc2)CC1"
  classLabel: "inactive"

Query: # lookup: test call for O=C(Nc1cccc(Cl)c1)Nc1ccccc1NS(=O)(=O)c1cccs1
Response: active

###

Experiment: counter-screen for M1 agonists: effect in parental CHO-K1 cells (AID 602248);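 note: untransfected CHO-K1 host cells lacking M1 receptor as counterscreen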
Conditions: Fluo-8 calcium fluorescence, at 3 µM, scaled to maximal ATP response, vehicle zero
In all, about 360,000 compounds went through this assay and about 1,700 (0.47%) were called active. No stated cut-off is given here; in the data, active means activation above about 15%; inactive means the rest. The sample as a whole holds a higher share of actives than the screen did.
Respond only with the outcome that fits, drawn from active, inactive

Here's what some known entries look like.
- compound: "NC(=O)c1ccc(NC(=O)COC(=O)c2c3c(nc4ccccc24)/C(=C\\c2ccc4c(c2)OCO4)CCC3)cc1"
  classLabel: "active"
- compound: "COc1ccc(C(=O)CSc2nnnn2C)c(OC)c1"
  classLabel: "inactive"
- compound: "COc1ccc(S(=O)(=O)N2CCOCC2)c(C)c1C"
  classLabel: "inactive"
- compound: "NS(=O)(=O)c1ccc(NC(=O)COC(=O)c2c3c(nc4ccccc24)/C(=C\\c2ccc4c(c2)OCO4)CCC3)cc1"
  classLabel: "active"
- compound: "COc1ccc(CC(=O)NC(C)c2ccc(Cl)c(Cl)c2)cc1S(=O)(=O)N1CCOCC1 (configuration not stated)"
  classLabel: "inactive"

Query: # lookup: test call for CC(=O)Nc1cccc(C(=O)OCC(=O)c2ccc3c(c2)OCO3)c1
Response: inactive

Query: # lookup: test call for Clc1ccc(CSc2nnc([C@@H]3CCCN3)o2)cc1
Response: inactive

Query: # lookup: test call for O=C(COC(=O)c1ccc(F)cc1)NCC1COc2ccccc2O1 (configuration not stated)
Response: inactive

Query: # lookup: test call for CC(=O)c1c(C)[nH]c(C(=O)COC(=O)CCOc2ccc(C)cc2)c1C
Response: inactive

Query: # lookup: test call for Cc1nn(CC2CC2)c(=O)n1N(C)c1ncc(C(F)(F)F)cc1Cl
Response: inactive

Query: # lookup: test call for CCC(C(=O)Nc1ccc(C(C)C)cc1)c1ccccc1 (configuration not stated)
Response: active
